- STUDY_TARGET: hM3 muscarinic receptor (Homo sapiens (Human), UniProt P20309)
- Sequence (P20309 whole entry): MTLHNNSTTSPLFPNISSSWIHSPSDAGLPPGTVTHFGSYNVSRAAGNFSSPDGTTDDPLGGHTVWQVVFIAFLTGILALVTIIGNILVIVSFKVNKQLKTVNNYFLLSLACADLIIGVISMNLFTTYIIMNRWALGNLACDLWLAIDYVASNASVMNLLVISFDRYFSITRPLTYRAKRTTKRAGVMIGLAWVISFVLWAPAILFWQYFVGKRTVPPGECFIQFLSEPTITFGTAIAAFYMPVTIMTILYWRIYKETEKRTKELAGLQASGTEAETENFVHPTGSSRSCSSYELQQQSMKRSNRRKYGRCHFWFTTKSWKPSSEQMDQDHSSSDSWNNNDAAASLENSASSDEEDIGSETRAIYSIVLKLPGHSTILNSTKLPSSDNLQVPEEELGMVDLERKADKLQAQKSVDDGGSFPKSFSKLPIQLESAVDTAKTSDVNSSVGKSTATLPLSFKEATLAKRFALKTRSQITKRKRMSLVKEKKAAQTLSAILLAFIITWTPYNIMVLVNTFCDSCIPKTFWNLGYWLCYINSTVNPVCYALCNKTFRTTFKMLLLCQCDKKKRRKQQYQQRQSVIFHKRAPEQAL
- TEST_DETAILS: Radioligand binding assay for muscarinic receptors ([3H]-NMS displacement, CHO cell membranes)
Counter-ions that a name gives are not always drawn.
READOUT_TYPE: Ki (pM)

INSERT INTO measurements (compound, readout_type, measured_value) VALUES
  ('CN(CCCCC(=O)Nc1cccc(CCNC[C@H](O)c2ccc(O)c3[nH]c(=O)ccc23)c1)C(=O)CCN1CCC(OC(=O)Nc2ccccc2-c2ccccc2)CC1 [Compound I-20]', 'Ki', 100),
  ('CC(Cc1ccc(CCNC(=O)Cc2ccc(N(C)C(=O)CCN3CCC(OC(=O)Nc4ccccc4-c4ccccc4)CC3)cc2)cc1)NC[C@H](O)c1ccc(O)c2[nH]c(=O)ccc12 (some centres unmarked) [Compound I-88]', 'Ki', 100),
  ('CN(CCCC(=O)Nc1cccc(CCNC[C@H](O)c2ccc(O)c3[nH]c(=O)ccc23)c1)C(=O)CCN1CCC(OC(=O)Nc2ccccc2-c2ccccc2)CC1 [Compound I-7, Ditrifluoroacetic Acid Salt]', 'Ki', 100),
  ('CC(Cc1cccc(CCC(=O)NCc2ccc(N(C)C(=O)CCN3CCC(OC(=O)Nc4ccccc4-c4ccccc4)CC3)cc2)c1)NC[C@H](O)c1ccc(O)c2[nH]c(=O)ccc12 (some centres unmarked) [Compound I-91]', 'Ki', 200),
  ('COc1ccc(NC(=O)CCCN(C)C(=O)CCN2CCC(OC(=O)Nc3ccccc3-c3ccccc3)CC2)cc1CCNC[C@H](O)c1ccc(O)c2[nH]c(=O)ccc12 [Compound I-9]', 'Ki', 100),
  ('C[C@@H](Cc1cccc(CC(=O)NCCCN(C)C(=O)CCN2CCC(OC(=O)Nc3ccccc3-c3ccccc3)CC2)c1)NC[C@H](O)c1ccc(O)c2[nH]c(=O)ccc12 [Compound I-13, Ditrifluoroacetic Acid Salt]', 'Ki', 100),
  ('CN(C(=O)CCN1CCC(OC(=O)Nc2ccccc2-c2ccccc2)CC1)c1ccc(CNC(=O)Cc2ccc(CNC[C@H](O)c3ccc(O)c4[nH]c(=O)ccc34)cc2)cc1 [Compound I-75]', 'Ki', 200),
  ('C[C@@H](Cc1ccc(CCNC(=O)Cc2ccc(N(C)C(=O)CCN3CCC(OC(=O)Nc4ccccc4-c4ccccc4)CC3)cc2)cc1)NC[C@H](O)c1ccc(O)c2[nH]c(=O)ccc12 [Compound I-89]', 'Ki', 100);

###

- STUDY_TARGET: hM3 muscarinic receptor (Homo sapiens (Human))
- TEST_DETAILS: Radioligand binding assay for muscarinic receptors ([3H]-NMS displacement, CHO cell membranes)
- PARTICULARS: hM3 Muscarinic Receptor Binding; data rounded to nearest 0.1 nM
pKi: −log10 of the molar value.
Parameter pKi: see the listing below.
READOUT_TYPE: pKi

INSERT INTO measurements (compound, study_target, readout_type, measured_value) VALUES
  ('Cc1ccc(CNC(=O)Cc2ccc(N(C)C(=O)CCN3CCC(OC(=O)Nc4ccccc4-c4ccccc4)CC3)cc2)cc1CC(C)NC[C@H](O)c1ccc(O)c2[nH]c(=O)ccc12 (some centres unmarked)', 'hM3 muscarinic receptor (Homo sapiens (Human))', 'pKi', 9.52),
  ('COc1ccc(CC(=O)NCc2ccc(N(C)C(=O)CCN3CCC(OC(=O)Nc4ccccc4-c4ccccc4)CC3)cc2)cc1C[C@H](C)NC[C@H](O)c1ccc(O)c2[nH]c(=O)ccc12', 'hM3 muscarinic receptor (Homo sapiens (Human))', 'pKi', 9.70),
  ('CN(C(=O)CCN1CCC(OC(=O)Nc2ccccc2-c2ccccc2)CC1)c1ccc(CNC(=O)Cc2cccc(CCNC[C@H](O)c3ccc(O)c4[nH]c(=O)ccc34)c2)cc1', 'hM3 muscarinic receptor (Homo sapiens (Human))', 'pKi', 9.52),
  ('CN(C(=O)CCN1CCC(OC(=O)Nc2ccccc2-c2ccccc2)CC1)c1ccc(CC(=O)NCc2ccc(CCNC[C@H](O)c3ccc(O)c4[nH]c(=O)ccc34)cc2)cc1', 'hM3 muscarinic receptor (Homo sapiens (Human))', 'pKi', 9.52),
  ('C[C@H](Cc1cccc(CCNC(=O)c2ccc(N(C)C(=O)CCN3CCC(OC(=O)Nc4ccccc4-c4ccccc4)CC3)cc2)c1)NC[C@H](O)c1ccc(O)c2[nH]c(=O)ccc12', 'hM3 muscarinic receptor (Homo sapiens (Human))', 'pKi', 9.70);

###

- STUDY_TARGET: hM3 muscarinic receptor (Homo sapiens (Human))
- TEST_DETAILS: Radioligand binding assay for muscarinic receptors ([3H]-NMS displacement, CHO cell membranes)
pKi: −log10 of the molar value.
Parameter pKi: see the listing below.
READOUT_TYPE: pKi

INSERT INTO assay_data (smiles_string, measured_value) VALUES
  ('Cc1ccc(C(=O)Nc2ccc(CNC[C@H](O)c3ccc(O)c4[nH]c(=O)ccc34)cc2)cc1N(C)C(=O)CCN1CCC(OC(=O)Nc2ccccc2-c2ccccc2)CC1', 9.70),
  ('CN(C(=O)CCN1CCC(OC(=O)Nc2ccccc2-c2ccccc2)CC1)c1cccc(C(=O)Nc2ccc(CNC[C@H](O)c3ccc(O)c4[nH]c(=O)ccc34)cc2)c1', 10.00),
  ('Cc1cc(CNC[C@H](O)c2ccc(O)c3[nH]c(=O)ccc23)ccc1NC(=O)c1ccc(C)c(N(C)C(=O)CCN2CCC(OC(=O)Nc3ccccc3-c3ccccc3)CC2)c1', 9.70),
  ('Cc1cc(CNC[C@H](O)c2ccc(O)c3[nH]c(=O)ccc23)ccc1NC(=O)c1cccc(N(C)C(=O)CCN2CCC(OC(=O)Nc3ccccc3-c3ccccc3)CC2)c1', 10.00),
  ('CN(CCCCC(=O)Nc1ccc(CCNC[C@H](O)c2ccc(O)c3[nH]c(=O)ccc23)cc1)C(=O)CCN1CCC(OC(=O)Nc2ccccc2-c2ccccc2)CC1', 10.00);

###

- STUDY_TARGET: hM3 muscarinic receptor (Homo sapiens (Human), UniProt P20309)
- TEST_DETAILS: Radioligand binding assay for muscarinic receptors ([3H]-NMS displacement, CHO cell membranes)
- PARTICULARS: hM3 Muscarinic Receptor Binding; data rounded to nearest 0.1 nM
pKi: −log10 of the molar value.
Parameter pKi: see the listing below.
READOUT_TYPE: pKi

INSERT INTO assay_data (compound, measured_value) VALUES
  ('COc1cc(NC(=O)CCCN(C)C(=O)CCN2CCC(OC(=O)Nc3ccccc3-c3ccccc3)CC2)c(Cl)cc1CNC[C@H](O)c1ccc(O)c2[nH]c(=O)ccc12', 10.00),
  ('Cc1ccc(C(=O)NCc2ccc(CC(C)NC[C@H](O)c3ccc(O)c4[nH]c(=O)ccc34)cc2)cc1N(C)C(=O)CCN1CCC(OC(=O)Nc2ccccc2-c2ccccc2)CC1 (stereo partly shown)', 9.70),
  ('CC(Cc1ccc(CC(=O)NCc2ccc(N(C)C(=O)CCN3CCC(OC(=O)Nc4ccccc4-c4ccccc4)CC3)cc2)cc1)NC[C@H](O)c1ccc(O)c2[nH]c(=O)ccc12 (stereo partly shown)', 9.70),
  ('COc1ccc(CC(=O)Nc2cccc(N(C)C(=O)CCN3CCC(OC(=O)Nc4ccccc4-c4ccccc4)CC3)c2)cc1CC(C)NC[C@H](O)c1ccc(O)c2[nH]c(=O)ccc12 (stereo partly shown)', 9.70),
  ('COc1ccc(CC(=O)NCc2ccc(N(C)C(=O)CCN3CCC(OC(=O)Nc4ccccc4-c4ccccc4)CC3)cc2)cc1C[C@@H](C)NC[C@H](O)c1ccc(O)c2[nH]c(=O)ccc12', 10.00),
  ('COc1cc(NC(=O)Cc2cccc(N(C)C(=O)CCN3CCC(OC(=O)Nc4ccccc4-c4ccccc4)CC3)c2)c(Cl)cc1CNC[C@H](O)c1ccc(O)c2[nH]c(=O)ccc12', 10.00),
  ('COc1ccc(CC(C)NC[C@H](O)c2ccc(O)c3[nH]c(=O)ccc23)cc1CC(=O)NCc1ccc(N(C)C(=O)CCN2CCC(OC(=O)Nc3ccccc3-c3ccccc3)CC2)cc1 (stereo partly shown)', 10.00),
  ('C[C@@H](Cc1cccc(CCNC(=O)c2ccc(N(C)C(=O)CCN3CCC(OC(=O)Nc4ccccc4-c4ccccc4)CC3)cc2)c1)NC[C@H](O)c1ccc(O)c2[nH]c(=O)ccc12', 9.70),
  ('Cc1ccc(C(=O)Nc2ccc(CC(C)NC[C@H](O)c3ccc(O)c4[nH]c(=O)ccc34)cc2)cc1N(C)C(=O)CCN1CCC(OC(=O)Nc2ccccc2-c2ccccc2)CC1 (stereo partly shown)', 9.52),
  ('Cc1ccc(C(=O)NCc2cccc(CC(C)NC[C@H](O)c3ccc(O)c4[nH]c(=O)ccc34)c2)cc1N(C)C(=O)CCN1CCC(OC(=O)Nc2ccccc2-c2ccccc2)CC1 (stereo partly shown)', 9.70);

###

- STUDY_TARGET: hM3 muscarinic receptor (Homo sapiens (Human), UniProt P20309)
- TEST_DETAILS: Radioligand binding assay for muscarinic receptors ([3H]-NMS displacement, CHO cell membranes)
- Method: The cells were grown in a 5% CO2, 37° C. incubator and lifted with 2 mM EDTA in dPBS. Cells were collected by 5 minute centrifugation at 650×g, and cell pellets were either stored frozen at −80° C. or membranes were prepared immediately for use. […] The protein concentration of the membrane suspension was determined by the method described in Lowry et al., 1951, Journal of Biochemistry, 193, 265. […] Filter plates were rinsed three times with wash buffer (10 mM HEPES) to remove unbound radioactivity. […]
pKi: −log10 of the molar value. Structures can show the parent of a compound that is named as a salt.
Parameter pKi: see the listing below.
READOUT_TYPE: pKi

INSERT INTO results (compound, measured_value) VALUES
  ('CC(Cc1ccc(CNC(=O)Cc2ccc(N(C)C(=O)CCN3CCC(OC(=O)Nc4ccccc4-c4ccccc4)CC3)cc2)cc1)NC[C@H](O)c1ccc(O)c2[nH]c(=O)ccc12 (some centres unmarked) [Compound I-66]', 9.70),
  ('Cc1cc(NC(=O)CCCCN(C)C(=O)CCN2CCC(OC(=O)Nc3ccccc3-c3ccccc3)CC2)c(C)cc1CNC[C@H](O)c1ccc(O)c2[nH]c(=O)ccc12 [Compound I-18, Ditrifluoroacetic Acid Salt]', 10.00),
  ('CN(CCCCC(=O)Nc1ccc(CNC[C@H](O)c2ccc(O)c3[nH]c(=O)ccc23)cc1)C(=O)CCN1CCC(OC(=O)Nc2ccccc2-c2ccccc2)CC1 [Compound I-14, Ditrifluoroacetic Acid Salt]', 10.00),
  ('Cc1cc(NC(=O)Cc2cccc(N(C)C(=O)CCN3CCC(OC(=O)Nc4ccccc4-c4ccccc4)CC3)c2)c(C)cc1CNC[C@H](O)c1ccc(O)c2[nH]c(=O)ccc12', 10.00),
  ('Cc1cc(NC(=O)CCCN(C)C(=O)CCN2CCC(OC(=O)Nc3ccccc3-c3ccccc3)CC2)c(C)cc1CNC[C@H](O)c1ccc(O)c2[nH]c(=O)ccc12', 10.00);

Numbers sourced from patent US8551978B2.
